# target desc: UniProtKB P29466
# procedure summary: Caspase-1 enzyme inhibition (Ki)
# Assay type: biochemical
# experimental parameters: substrate Suc-YVAD-pNA 80 μM, 37° C., pH 7.5
Where a SMILES comes first, the peptide text is derived from it. [ ]: non-standard residue; d: D form. The star is where a group is joined. 4Abz = Nc1ccc(C(=O)O)cc1; Bz = O=C(c1ccccc1)*
quantity: Ki

Below, each entry is followed by its recorded Ki result.
Request: Which value of Ki has been reported for COc1ccc(C(=O)N[C@H](C(=O)N[C@@H](C)C(=O)N[C@H](C=O)CC(=O)O)C(C)C)cc1 [Example 29n] in the records?
Result: 10 to 1000 nM

Request: Param item: `CC(C)[C@H](NC(=O)c1cccc2ccccc12)C(=O)N1CCC[C@H]1C(=O)N[C@H](C=O)CC(=O)O`
Result: < 10 nM

Request: Param item: CC(C)[C@H](NC(=O)c1ccccc1)C(=O)N[C@@H](C)C(=O)N[C@H](C=O)CC(=O)O [Example 29a] (Bz-Val-Ala-Asp-aldehyde)
Result: < 10 nM

Provide Ki for all items below, preserving their order.
1. C[C@H](NC(=O)c1nccc2ccccc12)C(=O)N1CCCC[C@H]1C(=O)N[C@H](C=O)CC(=O)O [Example 25a]
2. CC[C@H](NC(=O)c1ccc(N)c(Cl)c1)C(=O)N1CC(F)(F)C[C@H]1C(=O)N[C@H](C=O)CC(=O)O [Example 27e]
3. COc1ccc(C(=O)NC(C(=O)N2CCCC2C(=O)NC(C=O)CC(=O)O)C(C)C)cc1 (stereo not shown)
4. CC(=O)Nc1ccc(C(=O)N[C@H](C(=O)N2CCC[C@H]2C(=O)N[C@H](C=O)CC(=O)O)C(C)C)cc1 [Example 5a] (Ac-[4Abz]VPD-aldehyde)
5. CS(=O)(=O)CC[C@H](NC(=O)c1cc(Cl)c(O)c(Cl)c1)C(=O)N1CCC[C@H]1C(=O)N[C@H](C=O)CC(=O)O [Example 20p]
6. CC(C)[C@H](NC(=O)c1ccc2ncsc2c1)C(=O)N1CCC[C@H]1C(=O)N[C@H](C=O)CC(=O)O
7. CC(C)[C@H](NC(=O)c1nccc2ccccc12)C(=O)N1[C@@H](c2ccccc2)CC[C@H]1C(=O)N[C@H](C=O)CC(=O)O [Example 26f]

Result:
< 10 nM
10 to 1000 nM
< 10 nM
< 10 nM
< 10 nM
< 10 nM
< 10 nM

* * *

# target desc: Caspase-1 (Homo sapiens, UniProt P29466)
# procedure summary: Caspase-1 enzyme inhibition (Ki)
# Format: biochemical
# experimental parameters: substrate Suc-YVAD-pNA 80 μM, 37° C., pH 7.5
# Method: Ki values for test compounds with the various caspases were obtained by the method of Margolin et al. (J. Biol. Chem., 272 pp. 7223-7228 (1997)). […] Reaction rates were measured at 37° C. either by following the time dependant increase in absorbance at 405 nm (for the pNA substrates) or in fluorescence (Ex 390, Em 460) (for the AMC substrates). […]
pKi: −log10 of the molar value.
quantity: pKi

Below, each entry is followed by its recorded pKi result.
Request: Which value of pKi has been reported for CC(C)[C@H](NC(=O)c1ccc2ncccc2c1)C(=O)N1CCC[C@H]1C(=O)N[C@H](C=O)CC(=O)O [Example 5ad] in the records?
Result: > 8.00

Request: Param item: C[C@H](NC(=O)c1ccc(N)c(Cl)c1)C(=O)N1CCC[C@@H]1C(=O)N[C@H](C=O)CC(=O)O [Example 122o]
Result: < 6.00

Request: Param item: C[C@H](NC(=O)[C@@H](NC(=O)c1nccc2ccccc12)C(C)(C)C)C(=O)N[C@H](C=O)CC(=O)O [Example 29g]
Result: > 8.00

Request: Param item: COc1c(C)cc(C(=O)N[C@H](C(=O)N2CCC[C@H]2C(=O)N[C@H](C=O)CC(=O)O)C(C)C)cc1C [Example 5ac]
Result: > 8.00

Provide pKi for all items below, preserving their order.
1. COc1ccc(C(=O)N[C@H](C(=O)N2CCC[C@H]2C(=O)N[C@H](C=O)CC(=O)O)C(C)C)cc1OCc1ccccc1 [Example 5aa]
2. CC(C)Oc1cccc(C(=O)N[C@@H](C)C(=O)N2CCC[C@H]2C(=O)N[C@H](C=O)CC(=O)O)c1 [Example 122h]
3. COc1ccc(C(=O)NC(C(=O)N2N=C(C(C)(C)C)SC2C(=O)NC(C=O)CC(=O)O)C(C)C)cc1 (single isomer, unassigned) [Example 46a]
4. CC(C)[C@H](N)C(=O)N1CC(c2ccccc2)[C@H]1C(=O)N[C@H](C=O)CC(=O)O (stereo partly shown) [Example 24b]
5. CC(C)[C@H](NC(=O)c1cccc(Oc2ccccc2)c1)C(=O)N1CCC[C@H]1C(=O)N[C@H](C=O)CC(=O)O [Example 5ay]
6. Cc1ccc2ccccc2c1C(=O)N[C@H](C(=O)N1CCC[C@H]1C(=O)N[C@H](C=O)CC(=O)O)C(C)C [Example 5g]
7. C[C@H](NC(=O)c1cccc(N(C)C)c1)C(=O)N1CCC[C@H]1C(=O)N[C@H](C=O)CC(=O)O [Example 7n]

Result:
["> 8.00", "6.00 to 8.00", "< 6.00", "< 6.00", "> 8.00", "6.00 to 8.00", "6.00 to 8.00"]

Provide pKi for all items below, preserving their order.
1. CS(=O)(=O)CC[C@H](NC(=O)c1ccc(N)c(Cl)c1)C(=O)N1CCC[C@H]1C(=O)N[C@H](C=O)CC(=O)O [Example 20j]
2. CC(C)[C@H](NC(=O)c1ccc(N)c(Cl)c1)C(=O)N[C@@H](C)C(=O)N[C@H](C=O)CC(=O)O [Example 29r]

Result:
1. 6.00 to 8.00
2. > 8.00

* * *

Give measured pKi for each item. Keep answers brief.
# target desc: Caspase-1 (Homo sapiens, UniProt P29466)
# Sequence (P29466 120-297 limits assumed): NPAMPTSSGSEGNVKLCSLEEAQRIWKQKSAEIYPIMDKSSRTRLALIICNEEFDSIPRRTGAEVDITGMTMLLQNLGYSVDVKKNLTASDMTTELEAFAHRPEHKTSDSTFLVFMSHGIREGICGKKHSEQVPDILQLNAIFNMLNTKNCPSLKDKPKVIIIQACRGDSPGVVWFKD
# Sequence (P29466 317-404 limits assumed): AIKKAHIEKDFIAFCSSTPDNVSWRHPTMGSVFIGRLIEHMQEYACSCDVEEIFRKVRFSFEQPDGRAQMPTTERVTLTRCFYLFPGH
# procedure summary: Caspase-1 enzyme inhibition (Ki)
# Type: biochemical
# experimental parameters: substrate Suc-YVAD-pNA 80 μM, 37° C., pH 7.5
pKi: −log10 of the molar value. Where a SMILES comes first, the peptide text is derived from it. [ ]: non-standard residue; d: D form. The star is where a group is joined. Tle = CC(C)(C)[C@H](N)C(=O)O; Bz = O=C(c1ccccc1)*

Request: Which value of pKi has been reported for CC(C)[C@H](NC(=O)c1nccc2ccccc12)C(=O)N[C@@H](C)C(=O)N[C@H](C=O)CC(=O)O [Example 29b] in the records?
Result: > 8.00

Provide pKi for all items below, preserving their order.
1. C[C@H](NC(=O)[C@@H](NC(=O)c1ccccc1)C(C)(C)C)C(=O)N[C@H](C=O)CC(=O)O [Example 29m] (Bz-[Tle]-Ala-Asp-aldehyde)
2. CCCc1ccc(-c2ccc(C(=O)N[C@H](C(=O)N3CCC[C@H]3C(=O)N[C@H](C=O)CC(=O)O)C(C)C)cc2)cc1

Result:
1: > 8.00; 2: > 8.00

* * *

# target desc: UniProt:P29466
# procedure summary: Caspase-1 enzyme inhibition (Ki)
# Assay type: biochemical
# experimental parameters: substrate Suc-YVAD-pNA 80 μM, 37° C., pH 7.5
quantity: Ki

Request: Ki of CC(C)[C@H](NC(=O)c1nccc2ccccc12)C(=O)N1CCCC[C@H]1C(=O)N[C@H](C=O)CC(=O)O [Example 25b] on UniProt:P29466?
Result: < 0.01 µM

Request: Param item: `CC(C)[C@H](NC(=O)c1cccc2c1Cc1ccccc1-2)C(=O)N1CCC[C@H]1C(=O)N[C@H](C=O)CC(=O)O`
Result: < 0.01 µM

Request: Param item: `C[C@H](NC(=O)c1cccc(C(F)(F)F)c1)C(=O)N1CCC[C@H]1C(=O)N[C@H](C=O)CC(=O)O`
Result: < 0.01 µM

Request: Param item: C[C@H](NC(=O)c1ccccn1)C(=O)N1CCC[C@H]1C(=O)N[C@H](C=O)CC(=O)O [Example 122e]
Result: 0.01 to 1 µM

Request: Param item: `CC(C)[C@H](NC(=O)c1ccccc1C(=O)c1ccc(F)cc1)C(=O)N1CCC[C@H]1C(=O)N[C@H](C=O)CC(=O)O`
Result: 0.01 to 1 µM

Request: Param item: `CC(C)[C@H](NC(=O)Cc1ccccc1OCc1ccccc1)C(=O)N1CCC[C@H]1C(=O)N[C@H](C=O)CC(=O)O`
Result: 0.01 to 1 µM

Request: Param item: C[C@H](NC(=O)c1ccc(N)c(Cl)c1)C(=O)N[C@@H](C)C(=O)N[C@H](C=O)CC(=O)O [Example 29q]
Result: < 0.01 µM

Request: Param item: CC(C)[C@H](NC(=O)c1ccc(O)cc1)C(=O)N[C@@H](C)C(=O)N[C@H](C=O)CC(=O)O [Example 29l]
Result: 0.01 to 1 µM

Request: Param item: CC(=O)Nc1ccc(C(=O)N[C@@H](C)C(=O)N2CCCC[C@H]2C(=O)N[C@H](C=O)CC(=O)O)cc1Cl [Example 25e]
Result: < 0.01 µM

Request: Param item: CC(C(=O)N[C@H](C(=O)N1CCC[C@H]1C(=O)N[C@H](C=O)CC(=O)O)C(C)C)c1ccc(C(=O)c2cccs2)cc1 (some centres unmarked)
Result: 0.01 to 1 µM

Consider the additional compound presented here.
Request: Ki of Cc1cc(C(=O)N[C@H](C(=O)N[C@@H](C)C(=O)N[C@H](C=O)CC(=O)O)C(C)C)cc(C)c1O [Example 29e] on UniProt:P29466?
Result: < 0.01 µM
